# method_notes: inhibitors of CD40-induced NF-kB signaling, primary screen, BL2 cells, luciferase reporter, single point (AID 1053188);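 note: 0% = neutral control wells and 100% = IKK inhibitor VII at 50 µM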
# experimental_conditions: CD40L-induced, 4 h; at 10 µM unless noted
Among all 83,000 compounds or so, about 780 (0.94%) were called active.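 Rule for the calls: active = mean inhibition of at least 50% with a set share of replicates also reaching that level; inconclusive = no clear call, values can overlap the other calls; inactive = the rest.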 Many of the other results were omitted from the sample, so actives are more common in it than they were.
Result category, one only: label 1 (active), label 0 (inactive)

{"columns": ["compound", "group_label"],
 "data": [
  ["CCCn1c(N)c(C(=O)CSc2nc3ccccc3c(=O)n2-c2ccc(OC)cc2)c(=O)[nH]c1=O", "label 0"],
  ["O=C(Nc1ccc2c(c1)OCCO2)C1CCCC1", "label 1"]
]}

Ask: For this compound, state the assay outcome: `O=[N+]([O-])c1cccc(C2=NCCS2)c1`
Reply: label 0

Ask: Again, but for `O=C(Cc1ccc(Cl)cc1)c1ccccc1`
Reply: label 0

Ask: Same for `COc1ccc(S(=O)(=O)N2CCOCC2)cc1NC(=O)CSc1cc(C)ccc1C`
Reply: label 0

Ask: Can you handle Cc1ccc(S(=O)(=O)NCCC(=O)NNC(=O)C2COc3ccccc3O2)cc1 (stereo not drawn) next?
Reply: label 0

----------
# method_notes: inhibitors of CD40-induced NF-kB signaling, primary screen, BL2 cells, luciferase reporter, single point (AID 1053188);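 note: 0% = neutral control wells and 100% = IKK inhibitor VII at 50 µM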
# experimental_conditions: CD40L-induced, 4 h; at 10 µM unless noted
Screen size: about 83,000 compounds; about 780 (0.94%) were called active.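 Rule for the calls: active = mean inhibition of at least 50% with a set share of replicates also reaching that level; inconclusive = no clear call, values can overlap the other calls; inactive = the rest.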 For the sample, actives were picked, then their nearest neighbours and some compounds at random.
Pick one and only one: label 1 (active), label 0 (inactive)

Previously resolved entries follow.
{"columns": ["compound", "group_label"],
 "data": [
  ["CCOc1ccc(NC(=O)NNC(=O)c2ccc(Cl)cc2Cl)cc1", "label 0"],
  ["CC(=O)Nc1cccc(C(=O)OCC(=O)c2ccc3c(c2)OCO3)c1", "label 1"],
  ["O=C(C1CCOCC1)N1CC(=O)N2[C@H](CO)[C@@H](c3ccc(C#CC4CCCC4)cc3)[C@H]2C1", "label 0"],
  ["COc1ccc2c3c(n(C)c2c1)[C@H](CO)N(C(C)=O)CC31CN(Cc2ccc(Cl)cc2)C1", "label 1"],
  ["CN(c1nc2ccccc2n2c(-c3ccco3)nnc12)S(=O)(=O)c1ccccc1", "label 0"]
]}

# input for lookup
Ask: Tell me the recorded outcome of this test for `CC(C)N(C(=O)CN1CCN(S(=O)(=O)c2ccc(Br)s2)CC1)C(C)C` .
Reply: label 0

----------
# method_notes: inhibitors of CD40-induced NF-kB signaling, primary screen, BL2 cells, luciferase reporter, single point (AID 1053188);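 note: 0% = neutral control wells and 100% = IKK inhibitor VII at 50 µM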
# experimental_conditions: CD40L-induced, 4 h, hits give high values; at 10 µM unless noted
Hit rate of the full screen: of about 83,000 compounds, about 780 (0.94%) were called active. The entries come from a sample that favours actives as a whole.
endpoint_name: inhibition

Solved entries (count: 5):
{"columns": ["compound", "inhibition"],
 "data": [
  ["O=C(CSc1ccccc1)Nc1cccc(S(=O)(=O)N2CCCCC2)c1", "-2.87% (inactive)"],
  ["CCCN1[C@H](CO)[C@H](c2ccc(C#CC3CCCCC3)cc2)[C@@H]1CNC(=O)C1CC1", "-8.21% [at 25 µM] (inactive)"],
  ["COC(=O)c1sc(NC(=O)COC(=O)C2CCC2)c(C(=O)OC)c1C", "2.99% (inactive)"],
  ["Cn1cnc(S(=O)(=O)N2CCCCN3[C@@H](CO)[C@@H](c4ccc(C#CC5CCCC5)cc4)[C@@H]3C2)c1", "2.82% [at 25 µM] (inactive)"],
  ["N#C[C@@H]1N[C@@H](CO)[C@@H]1c1ccc(C#Cc2ccccc2F)cc1", "-72.6% [at 25 µM] (active)"]
]}

Ask: # inhibition lookup, item `Cc1cc2ccccc2n1CCC(=O)O`
Reply: 4.73% (inactive)

Ask: Thanks! And `CS(=O)(=O)Nc1ccc2c(c1)[C@H]1C[C@@H](CC(=O)NCCc3ccccc3)O[C@@H](CO)[C@H]1O2` ?
Reply: -1.64% [at 25 µM] (inactive)

Ask: Subsequent entry: `CN1C(=O)c2cc(NS(=O)(=O)CC(F)(F)F)ccc2OC[C@H]2O[C@@H](CC(=O)NCc3ccc(Cl)c(Cl)c3)CC[C@@H]21`
Reply: -2.48% [at 25 µM] (inactive)

Ask: Now give it for `O=C(Nc1ccccn1)C1CCN(S(=O)(=O)c2ccc3c(c2)OCCO3)CC1` too.
Reply: -48.7% (inactive)
